System: human lung cancer strain NCI-H441;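 note: cell proliferation inhibition after four days measured by CellTiter-Glo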
CONDITION CONTEXT: read-out: NCI-H441 cell proliferation inhibitory activity, 50% proliferation inhibitory concentration (IC50 value); NCI-H441, four days, CellTiter-Glo
Record form. Attribute: pIC50. Fill in for each entry.
Friendly reminder that pIC50 comes from taking -log10 of the concentration in mol/L.

Query block: Return reported pIC50. Input compound: CCCO[C@@H]1C[C@H]2C(=O)NC3(CC(C)(C)C3)C(=O)N(C)[C@@H](C3CCCC3)C(=O)N(C)[C@H](C(=O)N3CCCC3)CC(=O)N(C)[C@H]3CCCCc4ccc(cc4)C[C@@H](C(=O)N(C)CC(=O)N[C@@H](CCc4ccc(C(F)(F)F)c(OC)c4)C(=O)N2C1)N1CC/C=C\C[C@@H](C1=O)N(C)C(=O)CN(C)C(=O)[C@H]([C@@H](C)CC)NC3=O [PP3094]
Result block: 8.66

Query block: Return reported pIC50. Input compound: CCO[C@@H]1C[C@H]2C(=O)N(C)C3(CC(C)(C)C3)C(=O)N(C)[C@@H](C3CCCC3)C(=O)N(C)[C@H](C(=O)N(C)C)CC(=O)N(C)[C@H]3CCCCCCc4ccc(cc4)C[C@@H](C(=O)N(C)CC(=O)N[C@@H](CCc4ccc(C(F)(F)F)c(OC)c4)C(=O)N2C1)N1CC/C=C\C[C@@H](C1=O)N(C)C(=O)CN(C)C(=O)[C@H]([C@@H](C)CC)NC3=O [PP3090]
Result block: 8.89

Query block: Return reported pIC50. Input compound: CC[C@H](C)[C@@H]1NC(=O)[C@@H]2CCCc3ccc(cc3)C[C@@H](C(=O)N(C)CC(=O)N[C@@H](CCc3ccc(C(F)(F)F)c(OC)c3)C(=O)N3C[C@H](OC(C)C)C[C@H]3C(=O)NC3(CC(C)(C)C3)C(=O)N(C)[C@@H](C3CCCC3)C(=O)N(C)[C@H](C(=O)N(C)CC)CC(=O)N2C)N2CC/C=C\C[C@@H](C2=O)N(C)C(=O)CN(C)C1=O [PP3084]
Result block: 8.43

Query block: Return reported pIC50. Input compound: CC[C@H](C)[C@@H]1NC(=O)[C@@H]2CCCCCc3ccc(cc3)C[C@@H](C(=O)N(C)CC(=O)N[C@@H](CCc3ccc(C(F)(F)F)c(OC)c3)C(=O)N3C[C@H](OC(C)C)C[C@H]3C(=O)NC3(CC(C)(C)C3)C(=O)N(C)[C@@H](C3CCCC3)C(=O)N(C)[C@H](C(=O)N(C)C)CC(=O)N2C)N2CC/C=C\C[C@@H](C2=O)N(C)C(=O)CN(C)C1=O [PP3072]
Result block: 8.59

Query block: Return reported pIC50. Input compound: CC[C@H](C)[C@@H]1NC(=O)[C@@H]2CCCCc3ccc(cc3)C[C@@H](C(=O)N(C)CC(=O)N[C@@H](CCc3ccc(C(F)(F)F)c(OC)c3)C(=O)N3C[C@H](OC4CCCC4)C[C@H]3C(=O)NC3(CC(C)(C)C3)C(=O)N(C)[C@@H](C3CCCC3)C(=O)N(C)[C@H](C(=O)N(C)C)CC(=O)N2C)N2CC/C=C\C[C@@H](C2=O)N(C)C(=O)CN(C)C1=O [PP3080]
Result block: 8.37

Query block: Return reported pIC50. Input compound: CCC[C@H]1C(=O)N[C@@H]([C@@H](C)CC)C(=O)N(C)CC(=O)N(C)[C@H]2C/C=C\CCN(C2=O)[C@@H](Cc2ccc(C)cc2)C(=O)N(C)CC(=O)N[C@@H](CCc2ccc(C(F)(F)F)c(OC)c2)C(=O)N2C[C@H](OCC)C[C@H]2C(=O)N(C)C2(CCC2)C(=O)N(C)[C@@H](C2CCCC2)C(=O)N(C)[C@H](C(=O)N2CCCC2)CC(=O)N1C [PP3106]
Result block: 8.54

----------
Record form. Attribute: pKd. Fill in for each entry.
ASSAYED SYSTEM: GDP-bound KRAS wild-type protein (Homo sapiens, UniProt P01116)
Sequence (P01116 whole entry): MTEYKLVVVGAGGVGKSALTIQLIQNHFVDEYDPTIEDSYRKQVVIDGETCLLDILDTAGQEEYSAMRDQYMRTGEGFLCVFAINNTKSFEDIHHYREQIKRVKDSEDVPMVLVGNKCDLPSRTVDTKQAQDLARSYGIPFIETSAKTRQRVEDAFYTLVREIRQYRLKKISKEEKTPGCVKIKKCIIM
TEST: Binding to KRAS by surface plasmon resonance (SPR), Single Cycle Kinetics
CONDITION CONTEXT: SPR, Single Cycle Kinetics, GDP-bound KRAS wild-type protein; read-out: KRAS KD
Friendly reminder that pKd comes from taking -log10 of the concentration in mol/L.

Query block: Return reported pKd. Input compound: CCO[C@@H]1C[C@H]2C(=O)NC3(CCC3)C(=O)N(C)[C@@H](C3CCCC3)C(=O)N(CC)[C@H](C(=O)N(C)C)CC(=O)N(C)[C@@H](CC)C(=O)N[C@@H]([C@@H](C)CC)C(=O)N(C)CC(=O)N(C)[C@H]3C/C=C\CCN(C3=O)[C@@H](Cc3ccc(C(F)(F)F)cc3)C(=O)N(C)CC(=O)N[C@@H](CCc3cc(F)c(C(F)(F)F)c(F)c3)C(=O)N2C1
Result block: 9.06

Query block: Return reported pKd. Input compound: CCO[C@@H]1C[C@H]2C(=O)NC3(CC(C)(C)C3)C(=O)N(C)[C@@H](C3CCCC3)C(=O)N(C)[C@H](C(=O)N(C)C)CC(=O)N(C)[C@@H](CC3CCC3)C(=O)N[C@@H]([C@@H](C)CC)C(=O)N(C)CC(=O)N(C)[C@H]3C/C=C\CCN(C3=O)[C@@H](Cc3ccc(C(F)(F)F)cc3)C(=O)N(C)CC(=O)N[C@@H](CCc3ccc(C(F)(F)F)c(Cl)c3)C(=O)N2C1
Result block: 10.07

----------
ASSAYED SYSTEM: GDP-bound KRAS wild-type protein (Homo sapiens, UniProt P01116)
TEST: Binding to KRAS by surface plasmon resonance (SPR), Single Cycle Kinetics
CONDITION CONTEXT: SPR, Single Cycle Kinetics, GDP-bound KRAS wild-type protein; read-out: KRAS KD
// assign yes if Kd falls strictly below 0.2 nM, else no (ties count as no)

Query block: Please state whether Kd is below 0.2 nM for CCOC[C@H]1C(=O)N[C@@H]([C@@H](C)CC)C(=O)N(C)CC(=O)N(C)[C@H]2C/C=C\CCN(C2=O)[C@@H](CC2CCC(F)(F)CC2)C(=O)N(C)CC(=O)N[C@@H](CCc2ccc(C(F)(F)F)c(OC)c2)C(=O)N2C[C@H](OCC)C[C@H]2C(=O)NC2(CC(C)(C)C2)C(=O)N(C)[C@@H](C(CC)CC)C(=O)N(C)[C@H](C(=O)N(C)C)CC(=O)N1C
Result block: no

Query block: Please state whether Kd is below 0.2 nM for CCO[C@@H]1C[C@H]2C(=O)NC3(CCC3)C(=O)N(C)[C@@H](C3CCCC3)C(=O)N(C)[C@H](C(=O)N(C)C)CC(=O)N(C)[C@@H](COC)C(=O)N[C@@H]([C@@H](C)CC)C(=O)N(C)CC(=O)N(C)[C@H]3CCCCCN(C3=O)[C@@H](Cc3ccc(F)cc3)C(=O)N(C)CC(=O)N[C@@H](CCc3cc(F)c(C(F)(F)F)c(F)c3)C(=O)N2C1
Result block: yes

Query block: Please state whether Kd is below 0.2 nM for CCO[C@@H]1C[C@H]2C(=O)NC3(CC(C)(C)C3)C(=O)N(C)[C@@H](C(CC)CC)C(=O)N(C)[C@H](C(=O)N(C)C)CC(=O)N(C)[C@@H](CC3CCC3)C(=O)N[C@@H]([C@@H](C)CC)C(=O)N(C)CC(=O)N(C)[C@H]3C/C=C\CCN(C3=O)[C@@H](Cc3ccc(C)cc3)C(=O)N(C)CC(=O)N[C@@H](CCc3ccc(C(F)(F)F)c(Cl)c3)C(=O)N2C1
Result block: no

Query block: Please state whether Kd is below 0.2 nM for CCOC[C@H]1C(=O)N[C@@H]([C@@H](C)CC)C(=O)N2CCC[C@H]2C(=O)N(C)[C@H]2C/C=C\CCN(C2=O)[C@@H](Cc2ccc(C)cc2)C(=O)N(C)CC(=O)N[C@@H](CCc2cc(F)c(C(F)(F)F)c(F)c2)C(=O)N2C[C@H](OCC)C[C@H]2C(=O)NC2(CC(C)(C)C2)C(=O)N(C)[C@@H](C2CCCC2)C(=O)N(C)[C@H](C(=O)N(C)CC)CC(=O)N1C
Result block: no

Query block: Please state whether Kd is below 0.2 nM for CCO[C@@H]1C[C@H]2C(=O)NC3(CCCC3)C(=O)N(C)[C@@H](C3CCCC3)C(=O)N(C)[C@H](C)CC(=O)N(C)[C@@H](CC(C)C)C(=O)N[C@@H]([C@@H](C)CC)C(=O)N(C)CC(=O)N(C)[C@H]3C/C=C\CCN(C3=O)[C@@H](Cc3ccc(C(F)(F)F)cc3)C(=O)N(C)CC(=O)N[C@@H](CCc3cc(F)c(C(F)(F)F)c(F)c3)C(=O)N2C1
Result block: no

Query block: Please state whether Kd is below 0.2 nM for CCCOC[C@H]1C(=O)N[C@@H]([C@@H](C)CC)C(=O)N2CCC[C@H]2C(=O)N(C)[C@H]2C/C=C\CCN(C2=O)[C@@H](Cc2ccc(C(F)(F)F)cc2)C(=O)N(C)CC(=O)N[C@@H](CCc2ccc(C(F)(F)F)c(OC)c2)C(=O)N2C[C@H](OCC)C[C@H]2C(=O)N(C)C2(CCC2)C(=O)N(C)[C@@H](C2CCCC2)C(=O)N(C)[C@H](C(=O)N(C)C)CC(=O)N1C
Result block: yes

Query block: Please state whether Kd is below 0.2 nM for CCO[C@@H]1C[C@H]2C(=O)NC3(CCC3)C(=O)N(C)[C@@H](C3CCCC3)C(=O)N(C)[C@H](C(=O)N3CCOCC3)CC(=O)N(C)[C@@H](CCOC)C(=O)N[C@@H]([C@@H](C)CC)C(=O)N(C)CC(=O)N(C)[C@H]3CCCCCN(C3=O)[C@@H](Cc3ccc(F)cc3)C(=O)N(C)CC(=O)N[C@@H](CCc3cc(F)c(C(F)(F)F)c(F)c3)C(=O)N2C1
Result block: yes

Query block: Please state whether Kd is below 0.2 nM for C#CC[C@H]1C(=O)N[C@@H]([C@@H](C)CC)C(=O)N(C)CC(=O)N(C)[C@H]2C/C=C\CCN(C2=O)[C@@H](Cc2ccc(C(F)(F)F)cc2)C(=O)N(C)CC(=O)N[C@@H](CCc2cc(F)c(C(F)(F)F)c(F)c2)C(=O)N2C[C@@H](C)C[C@H]2C(=O)NC2(CC(C)(C)C2)C(=O)N(C)[C@@H](C2CCCC2)C(=O)N(C)[C@H](C(=O)N(C)CCC)CC(=O)N1C
Result block: no

Query block: Please state whether Kd is below 0.2 nM for CCO[C@@H]1C[C@H]2C(=O)NC3(CCCC3)C(=O)N(C)[C@@H](C3CCCC3)C(=O)N(C)[C@H](C(=O)N(C)C)CC(=O)N(C)[C@@H](CC(C)C)C(=O)N[C@@H]([C@@H](C)CC)C(=O)N(C)CC(=O)N(C)[C@H]3C[C@@H](C)CCN(C3=O)[C@@H](Cc3ccc(C(F)(F)F)cc3)C(=O)N(C)CC(=O)N[C@@H](CCc3cc(F)c(C(F)(F)F)c(F)c3)C(=O)N2C1
Result block: yes

Query block: Please state whether Kd is below 0.2 nM for CCCO[C@@H]1C[C@H]2C(=O)NC3(CC(C)(C)C3)C(=O)N(C)[C@@H](C3CCCC3)C(=O)N(C)[C@H](C(=O)N3CCCC3)CC(=O)N(C)[C@H]3CCCc4ccc(cc4)C[C@@H](C(=O)N(C)CC(=O)N[C@@H](CCc4ccc(C(F)(F)F)c(OC)c4)C(=O)N2C1)N1CC/C=C\C[C@@H](C1=O)N(C)C(=O)CN(C)C(=O)[C@H]([C@@H](C)CC)NC3=O
Result block: no

Query block: Please state whether Kd is below 0.2 nM for CCO[C@@H]1C[C@H]2C(=O)NC3(CCCC3)C(=O)N(C)[C@@H](C3CCCC3)C(=O)N(C)[C@H](C(=O)N3CCOCC3)CC(=O)N(C)[C@@H](CC)C(=O)N[C@@H]([C@@H](C)CC)C(=O)N(C)CC(=O)N(C)[C@H]3C[C@@H](C)CCN(C3=O)[C@@H](Cc3ccc(C(F)(F)F)cc3)C(=O)N(C)CC(=O)N[C@@H](CCc3cc(F)c(C(F)(F)F)c(F)c3)C(=O)N2C1
Result block: yes

The values you see were collected from patent US20240158446A1.
